Test system: Epstein-Barr Virus (EBV), Akata
test: DNA hybridization assay for EBV in Akata cells
Type: cell-based
cond: read-out: EBV EC50; Akata cells, 72 h, viral DNA accumulation
property-label: EC50 (µM)
# number only, unit µM dropped from output

Consider the reported EC50 for these compounds:
Query string: Given the compound CCCCCCC(CCCCCCCCCCC(=O)OCCOCn1cnc2c(=O)[nH]c(N)nc21)OC(=O)CCCC[C@@H]1SC[C@@H]2NC(=O)N[C@@H]21 (stereo partly shown) [B-12HS-ACV, Biotin-12hydroxystearicacid-acyclovir] , what is its reported EC50?
Result string: 37.2

Query string: Record request: EC50 value, item CCCCCCC(O)CCCCCCCCCCC(=O)OCCOCn1cnc2c(=O)[nH]c(N)nc21 (stereo not shown) [12HS-ACV, 12hydroxystearicacid-acyclovir]
Result string: 35.8

Query string: What does the data say about its EC50? Entry: Nc1nc2c(ncn2COCCOC(=O)CCCC[C@@H]2SC[C@@H]3NC(=O)N[C@@H]32)c(=O)[nH]1 [B-ACV, Biotin-acyclovir]
Result string: 22.3

More entries:
Query string: I am curious: what EC50 value has been reported for CCCCCCC(O)CC=CCCCCCCCC(=O)OCCOCn1cnc2c(=O)[nH]c(N)nc21 (stereo not shown) [R-ACV, Ricinoleicacid-acyclovir] ?
Result string: 10.7

====

test: in vitro
Assay type: cell-based, human
cond: human
property-label: CC50

Query string: Bench note: what CC50 did Nc1nc2c(ncn2COCCO)c(=O)[nH]1 [ACV, Acyclovir, reference compound] show?
Result string: > 100 µM

====

# CC50 values compiled below
Tested on: Akata cells
test: in vitro
Assay type: cell-based, human

These recorded examples may help you get a feel for the data.
Query string: Request the reported CC50 associated with CCCCCCC(O)CCCCCCCCCCC(=O)OCCOCn1cnc2c(=O)[nH]c(N)nc21 (stereo not shown) [12HS-ACV, 12hydroxystearicacid-acyclovir]
Result string: 47.3 µM

Query string: Data request, read-out CC50, for Nc1nc2c(ncn2COCCOC(=O)CCCC[C@@H]2SC[C@@H]3NC(=O)N[C@@H]32)c(=O)[nH]1
Result string: > 60 µM

Query string: Consider the compound shown here: CCCCCCC(O)CC=CCCCCCCCC(=O)OCCOCn1cnc2c(=O)[nH]c(N)nc21 (stereo not shown) What is its recorded CC50?
Result string: > 60 µM

Others:
Query string: Can you look up the measured CC50 of CCCCCCC(CCCCCCCCCCC(=O)OCCOCn1cnc2c(=O)[nH]c(N)nc21)OC(=O)CCCC[C@@H]1SC[C@@H]2NC(=O)N[C@@H]21 (stereo partly shown) [B-12HS-ACV, Biotin-12hydroxystearicacid-acyclovir] for me?
Result string: > 60 µM

====

Test system: Herpes Simplex Virus 2 (HSV-2), MS strain
test: Plaque reduction assay for HSV-2 in HFF cells
Type: cell-based
cond: read-out: HSV-2 EC50; MS strain, HFF cells
property-label: pEC50
pEC50 is defined as minus the log10 of a concentration measured in mol/L.

Query string: Item: CCCCCCC(O)CC=CCCCCCCCC(=O)OCCOCn1cnc2c(=O)[nH]c(N)nc21 (stereo not shown) [R-ACV, Ricinoleicacid-acyclovir] Test system: Herpes Simplex Virus 2 (HSV-2), MS strain Read-out: pEC50 Value: ?
Result string: 5.47

Query string: Record CCCCCCC(O)CCCCCCCCCCC(=O)OCCOCn1cnc2c(=O)[nH]c(N)nc21 (stereo not shown) [12HS-ACV, 12hydroxystearicacid-acyclovir] : what is its pEC50 with Herpes Simplex Virus 2 (HSV-2), MS strain?
Result string: 6.39
